Target Or System: Recombinant Human ENPP-2/Autotaxin (Homo sapiens)
Assay Overview: LysoPLD activity measurement (autotaxin enzyme inhibition, choline release, TOOS reagent)
Assay Context: LysoPLD inhibitory activity; substrate 14:0 LysoPC; absorbance at 555 nm
Here, each record is paired with measured IC50 data.

>  <Compound>
O=C(O)c1cccc(Cn2c(=O)n(-c3ccc(N4CCC(F)(F)C4)nc3)c3cc(Cl)ccc32)c1F [Example 166]

>  <IC50>
0.1 to 1 µM

$$$$
>  <Compound>
CN1Cc2cc(-n3c(=O)n(C4(c5cccc(C(=O)O)c5)CC4)c4ccc(Cl)cc43)ccc2C1=O [Example 245]

>  <IC50>
< 0.01 µM

$$$$
>  <Compound>
CC(C)Oc1ccc(-n2c(=O)n(Cc3cccc(C(=O)O)c3)c3ccc(Cl)cc32)cc1 [Example 14]

>  <IC50>
0.01 to 0.1 µM

$$$$
>  <Compound>
CC(C)(O)c1ccc(-n2c(=O)n(Cc3cccc(C(=O)O)c3)c3ccc(Cl)cc32)cc1 [Example 18]

>  <IC50>
0.01 to 0.1 µM

$$$$
>  <Compound>
O=C(O)c1cccc(C2(n3c(=O)n(-c4ccc(C(=O)N5CC(O)C5)cc4)c4cc(Cl)cnc43)CC2)c1F [Example 232]

>  <IC50>
< 0.01 µM

$$$$
>  <Compound>
O=C(O)c1cc(F)cc(C2(n3c(=O)n(-c4ccc(C5CCOCC5)cc4)c4cc(Cl)cnc43)CC2)c1 [Example 273]

>  <IC50>
0.01 to 0.1 µM

$$$$
>  <Compound>
O=C(O)c1cc(F)cc(Cn2c(=O)n(-c3ccc(N4CCOCC4)cc3)c3c(F)c(Cl)ccc32)c1 [Example 49]

>  <IC50>
0.01 to 0.1 µM

$$$$
>  <Compound>
O=C(O)c1cccc(Cn2c(=O)n(-c3ccc(N4CCC(F)(F)CC4)cc3)c3cc(Cl)ccc32)c1F [Example 118]

>  <IC50>
0.01 to 0.1 µM

$$$$
>  <Compound>
CN(C)C(=O)c1ccc(-n2c(=O)n(Cc3cccc(C(=O)O)c3)c3c(F)cc(Cl)cc32)cc1 [Example 54]

>  <IC50>
< 0.01 µM

$$$$
>  <Compound>
O=C(O)c1cccc(C2(n3c(=O)n(-c4ccc(C(=O)N5CC6(CCOCC6)C5)cc4)c4cc(Cl)cnc43)CC2)c1 [Example 225]

>  <IC50>
< 0.01 µM

$$$$
>  <Compound>
CN(C)c1ccc(-n2c(=O)n(C3(c4cccc(C(=O)O)c4)CC3)c3ccc(C(F)(F)F)cc32)cc1 [Example 206]

>  <IC50>
0.01 to 0.1 µM

$$$$
>  <Compound>
O=C(O)c1cccc(Cn2c(=O)n(-c3ccc(C4CCOCC4)cc3)c3cc(Cl)ccc32)c1F [Example 108]

>  <IC50>
0.01 to 0.1 µM

$$$$
>  <Compound>
O=C(O)c1cc(F)cc(C2(n3c(=O)n(-c4ccc(C5CCOCC5)cc4)c4cc(Cl)ccc43)CC2)c1 [Example 190]

>  <IC50>
0.01 to 0.1 µM

$$$$
>  <Compound>
CC1(C)COC(=O)N1c1ccc(-n2c(=O)n(C3(c4cccc(C(=O)O)c4)CC3)c3ccc(Cl)cc32)cc1 [Example 242]

>  <IC50>
< 0.01 µM

$$$$
>  <Compound>
O=C(O)c1cccc(Cn2c(=O)n(-c3ccc(C4CCN(C(=O)C5CC5)CC4)cc3)c3c(F)c(Cl)ccc32)c1F [Example 150]

>  <IC50>
0.01 to 0.1 µM

$$$$
>  <Compound>
O=C(O)c1ccc(F)c(Cn2c(=O)n(-c3ccccc3)c3cc(Cl)ccc32)c1 [Example 32]

>  <IC50>
0.1 to 1 µM

$$$$
>  <Compound>
CCCn1cc(-n2c(=O)n(Cc3cccc(C(=O)O)c3)c3ccc(Cl)c(F)c32)cn1 [Example 88]

>  <IC50>
0.01 to 0.1 µM

$$$$
>  <Compound>
O=C(O)c1cccc(C2(n3c(=O)n(-c4ccc(C(=O)N5CCOCC5)cc4)c4cc(Cl)ccc43)CC2)c1 [Example 126]

>  <IC50>
< 0.01 µM

$$$$
>  <Compound>
O=C(O)c1cccc(Cn2c(=O)n(-c3ccc(N4CCOCC4)nc3)c3cc(Cl)ccc32)c1 [Example 78]

>  <IC50>
0.01 to 0.1 µM

$$$$
>  <Compound>
O=C(O)c1cccc(C2(n3c(=O)n(-c4ccc(C5CCOCC5)nc4)c4cc(Cl)ccc43)CC2)c1 [Example 261]

>  <IC50>
0.01 to 0.1 µM

$$$$
>  <Compound>
O=C(O)c1cccc(Cn2c(=O)n(-c3ccc(N4CC(O)C4)nc3)c3cc(Cl)ccc32)c1 [Example 77]

>  <IC50>
0.1 to 1 µM

$$$$
>  <Compound>
CCCOc1ccc(-n2c(=O)n(Cc3cccc(C(=O)O)c3)c3ccc(Cl)cc32)cn1 [Example 76]

>  <IC50>
0.1 to 1 µM

$$$$
>  <Compound>
O=C(O)c1cccc(C2(n3c(=O)n(-c4ccc(S(=O)(=O)NC5CC5)cc4)c4cc(Cl)ccc43)CC2)c1 [Example 211]

>  <IC50>
< 0.01 µM

$$$$
>  <Compound>
CN(C)C(=O)c1ccc(-n2c(=O)n(C3(c4cccc(C(=O)O)c4)CC3)c3ccc(Cl)cc32)cc1 [Example 71]

>  <IC50>
< 0.01 µM

$$$$
>  <Compound>
CC1(C)OCc2cc(-n3c(=O)n(C4(c5cccc(C(=O)O)c5)CC4)c4ccc(Cl)cc43)ccc21 [Example 251]

>  <IC50>
< 0.01 µM

$$$$
>  <Compound>
O=C(O)c1coc(Cn2c(=O)n(-c3ccc(N4CCOCC4)cc3)c3c(F)c(Cl)ccc32)n1 [Example 199]

>  <IC50>
0.1 to 1 µM

$$$$
>  <Compound>
O=C(O)c1cccc(C2(n3c(=O)n(-c4ccc(C5CCOC5)cc4)c4cc(Cl)ccc43)CC2)c1 (stereo not drawn) [Example 248]

>  <IC50>
< 0.01 µM

$$$$
>  <Compound>
O=C(O)c1cc(F)cc(C2(n3c(=O)n(-c4ccc(C(=O)N5CCCC5)cc4)c4cc(Cl)cnc43)CC2)c1 [Example 276]

>  <IC50>
< 0.01 µM

$$$$
>  <Compound>
O=C(O)c1cccc(C2(n3c(=O)n(-c4ccc(N5CCCC5)cc4)c4cc(Cl)ccc43)CC2)c1 [Example 146]

>  <IC50>
< 0.01 µM

$$$$
>  <Compound>
CCCCc1ccc(-n2c(=O)n(Cc3cccc(C(=O)O)c3)c3ccc(Cl)cc32)cc1 [Example 16]

>  <IC50>
0.1 to 1 µM

$$$$

###

Target Or System: Recombinant Human ENPP-2/Autotaxin (Homo sapiens)
Assay Overview: LysoPLD activity measurement (autotaxin enzyme inhibition, choline release, TOOS reagent)
Assay Context: LysoPLD inhibitory activity; substrate 14:0 LysoPC; absorbance at 555 nm
Here, each record is paired with measured IC50 data.

>  <Compound>
O=C(O)c1cccc(C2(n3c(=O)n(-c4ccc(C5(CO)CC5)cc4)c4cc(Cl)ccc43)CC2)c1 [Example 238]

>  <IC50>
< 10 nM

$$$$
>  <Compound>
CN(C)c1ccc(-n2c(=O)n(C3(c4cccc(C(=O)O)c4F)CC3)c3ncc(Cl)cc32)cc1 [Example 229]

>  <IC50>
< 10 nM

$$$$
>  <Compound>
CN(C)c1ccc(-n2c(=O)n(C3(c4cccc(C(=O)O)c4)CC3)c3ncc(Cl)cc32)cc1 [Example 221]

>  <IC50>
< 10 nM

$$$$
>  <Compound>
O=C(O)c1cc(F)cc(C2(n3c(=O)n(-c4ccc(C5CCOC5)cc4)c4cc(Cl)ccc43)CC2)c1 (stereo not shown) [Example 249]

>  <IC50>
< 10 nM

$$$$

###

Target Or System: Recombinant Human ENPP-2/Autotaxin (Homo sapiens, UniProt Q13822)
Assay Overview: LysoPLD activity measurement (autotaxin enzyme inhibition, choline release, TOOS reagent)
Assay Context: LysoPLD inhibitory activity; substrate 14:0 LysoPC; absorbance at 555 nm
pIC50: −log10 of the molar value.
Property Label: pIC50

>  <Compound>
C[C@@H]1COCCN1C(=O)Cc1ccc(-n2c(=O)n(C3(c4cccc(C(=O)O)c4)CC3)c3ccc(Cl)cc32)cc1 [Example 178]

>  <Property Label>
pIC50

>  <Result>
> 8.00

$$$$
>  <Compound>
O=C(O)c1cccc(Cn2c(=O)n(-c3cnc(N4CCOCC4)nc3)c3cc(Cl)ccc32)c1 [Example 83]

>  <Property Label>
pIC50

>  <Result>
6.00 to 7.00

$$$$
>  <Compound>
O=C(O)c1cccc(C2(n3c(=O)n(-c4ccc(C(=O)N5CCCCC5)cc4)c4cc(Cl)ccc43)CC2)c1 [Example 64]

>  <Property Label>
pIC50

>  <Result>
> 8.00

$$$$
>  <Compound>
O=C(O)c1cccc(C2(n3c(=O)n(-c4ccc(-c5nnc(C6CCCCC6)o5)cc4)c4cc(Cl)ccc43)CC2)c1 [Example 265]

>  <Property Label>
pIC50

>  <Result>
7.00 to 8.00

$$$$
>  <Compound>
O=C(O)c1cc(F)cc(C2(n3c(=O)n(-c4ccc(C(=O)N5CC6(CCOCC6)C5)cc4)c4cc(Cl)cnc43)CC2)c1 [Example 275]

>  <Property Label>
pIC50

>  <Result>
> 8.00

$$$$
>  <Compound>
O=C(O)c1c(F)ccc(Cn2c(=O)n(-c3ccc(N4CCOCC4)cc3)c3c(F)c(Cl)ccc32)c1F [Example 204]

>  <Property Label>
pIC50

>  <Result>
7.00 to 8.00

$$$$
>  <Compound>
CN(C)C(=O)c1ccc(-n2c(=O)n(Cc3cccc(C(=O)O)c3)c3ccc(Cl)cc32)cc1 [Example 21]

>  <Property Label>
pIC50

>  <Result>
> 8.00

$$$$
